experimental.system: TSP-1 protein expressed by PMA-differentiated THP-1 macrophage-like cells (UniProt P07996 19-1170)
Sequence (P07996 19-1170 limits assumed): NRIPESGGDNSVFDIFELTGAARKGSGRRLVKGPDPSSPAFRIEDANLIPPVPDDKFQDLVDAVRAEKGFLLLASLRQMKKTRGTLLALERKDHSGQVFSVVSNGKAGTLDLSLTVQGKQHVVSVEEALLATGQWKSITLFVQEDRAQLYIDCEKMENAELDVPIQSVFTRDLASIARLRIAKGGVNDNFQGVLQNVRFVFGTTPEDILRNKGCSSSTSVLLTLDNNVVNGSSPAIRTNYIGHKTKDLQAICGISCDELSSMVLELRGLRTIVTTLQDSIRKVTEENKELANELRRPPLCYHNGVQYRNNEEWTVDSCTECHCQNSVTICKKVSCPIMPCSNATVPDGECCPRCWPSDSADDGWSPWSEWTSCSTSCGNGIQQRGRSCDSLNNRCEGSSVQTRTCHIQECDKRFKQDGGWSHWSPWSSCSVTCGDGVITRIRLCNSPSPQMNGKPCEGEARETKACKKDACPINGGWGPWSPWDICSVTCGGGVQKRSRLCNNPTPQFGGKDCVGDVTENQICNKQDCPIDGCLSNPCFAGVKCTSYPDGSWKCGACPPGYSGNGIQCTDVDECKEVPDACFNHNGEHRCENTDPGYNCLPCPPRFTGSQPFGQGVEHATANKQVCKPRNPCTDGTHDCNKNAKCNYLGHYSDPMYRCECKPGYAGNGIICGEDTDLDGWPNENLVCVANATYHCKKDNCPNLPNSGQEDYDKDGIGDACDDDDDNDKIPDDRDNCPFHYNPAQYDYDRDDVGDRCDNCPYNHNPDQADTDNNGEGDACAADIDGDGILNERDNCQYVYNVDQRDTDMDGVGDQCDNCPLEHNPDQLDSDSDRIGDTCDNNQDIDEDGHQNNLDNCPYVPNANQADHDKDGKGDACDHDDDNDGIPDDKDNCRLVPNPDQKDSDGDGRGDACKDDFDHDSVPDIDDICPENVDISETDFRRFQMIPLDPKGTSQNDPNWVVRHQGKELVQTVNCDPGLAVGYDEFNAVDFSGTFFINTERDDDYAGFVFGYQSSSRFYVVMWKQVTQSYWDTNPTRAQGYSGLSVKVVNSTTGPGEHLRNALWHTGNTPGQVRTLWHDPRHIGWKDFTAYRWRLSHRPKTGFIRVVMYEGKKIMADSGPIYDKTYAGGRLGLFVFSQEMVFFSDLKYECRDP
measurement.description: cell-based or functional assay
In this section we review reported Mean (relative fluorescence intensity), 293-TGFβ Res reporter cells values for a set of binders.

[[record]]
binder = "Ac-TQDAEDNTV-NH2 [SEQ ID NO: 17]"
result = "0.78 ratio to negative control"

[[record]]
binder = "Ac-TQDPAED-NH2 [SEQ ID NO: 47]"
result = "0.8 ratio to negative control"

[[record]]
binder = "Ac-TQDPEDNTAS-NH2 [SEQ ID NO: 26]"
result = "0.68 ratio to negative control"

[[record]]
binder = "Ac-TQDAEDNTAS-NH2 [SEQ ID NO: 24]"
result = "0.57 ratio to negative control"

[[record]]
binder = "Ac-TQDAEDNTASH-NH2 [SEQ ID NO: 33]"
result = "0.67 ratio to negative control"


Query: What value of Mean (relative fluorescence intensity), 293-TGFβ Res reporter cells has been recorded for this entry: TQDAEDN (Head-to-tail cyclization, cyclic peptide; also called TQDAEDN; cyclo[Thr-Gln-Asp-Ala-Glu-Asp-Asn]) [SEQ ID NO: 40]
Result: 0.77 ratio to negative control

Query: Next binder: YRVRFLAKENVTQDAEDN (Printed as 'Without modification'; also called Positive control group) [SEQ ID NO: 50]
Result: 0.84 ratio to negative control
